# Tested on: human SMAD7 mRNA
# experimental-protocol: Antisense inhibition of human SMAD7 mRNA expression in Hep3B cells by 3-10-3 cEt gapmers, 10,000 nM, electroporation (Example 2)
# Type: cell-based
# measurement-parameters: Hep3B cells, electroporation with 10,000 nM antisense oligonucleotide, approximately 24 hours, SMAD7 mRNA by RT-PCR (RTS5062), relative to untreated control cells
Strand notation (5' to 3'): a small letter for the sugar, then the base; units joined by * are phosphorothioate-linked, units joined directly phosphodiester-linked; [ ] holds rarer units or linkages, { } end groups; capitals alone tell only the bases. k = constrained ethyl (cEt); [5mC] = 5-methylcytosine; d = 2'-deoxy (DNA)
Classification field: enter 1 for % Inhibition values not below 20%, 0 for values below it.

Illustrative cases are given below, each with its answer.
INSERT INTO measurements (substance, experimental_system, qualitative_label) VALUES
  ('799259 (antisense kT*kG*k[5mC]*d[5mC]*d[5mC]*d[5mC]*dA*dA*dA*dA*d[5mC]*dT*d[5mC]*k[5mC]*kA*kA) [compound 799259]', 'human SMAD7 mRNA', 1),
  ('799387 (antisense k[5mC]*k[5mC]*kA*dG*dG*dA*dG*d[5mC]*dT*dA*dA*dA*dT*kG*kG*kT) [compound 799387]', 'human SMAD7 mRNA', 1),
  ('800102 (antisense kA*k[5mC]*kG*dA*dG*dA*d[5mC]*dA*dG*dA*dA*dA*dG*kA*kA*kG) [compound 800102]', 'human SMAD7 mRNA', 1);

**Q:** Threshold query (% Inhibition >= 20%) on 798700 (antisense k[5mC]*k[5mC]*k[5mC]*d[5mC]*dG*d[5mC]*dA*dG*d[5mC]*dT*d[5mC]*dG*d[5mC]*k[5mC]*kT*k[5mC]) [compound 798700]
**A:** 1

**Q:** Dear colleague, could you confirm whether 800005 (k[5mC]*k[5mC]*kG*d[5mC]*dA*d[5mC]*d[5mC]*d[5mC]*dA*dG*dA*d[5mC]*d[5mC]*k[5mC]*k[5mC]*kT; antisense) [compound 800005] has % Inhibition at or above 20%?
**A:** 1

**Q:** Exam item: decide whether the reported % Inhibition for 799512 (antisense kG*kT*kT*dA*dA*dT*dG*dA*dG*dG*dA*dT*dA*kA*kT*kG) [compound 799512] is at least 20%.
**A:** 0
